Origin of values: paper PMC9736874

Test system: ES-2 cells
METHOD SUMMARY: Anti-proliferative assay (MTT), ES-2
Type: cell-based
RUN PARAMETERS: Homo sapiens, 48 h, triplicate, mean ± SD
ASSAY METRIC: pIC50
Value format note: pIC50 is -log10 of concentration (mol/L); just state the number.

Sample CC(=O)N1N=C(c2c(Cl)cccc2Cl)CC1c1ccccc1OCC(=O)NO (centres unmarked) [Compound 14o] — what was its pIC50?
3.94

---

ASSAY METRIC: melting point

{"MOLECULE": "NC(=O)N1N=C(c2ccccc2OCc2cccc(Br)c2)CC1c1ccccc1OCC(=O)NO (centres unmarked) [Compound 14ff]", "melting point": "120 to 122 °C"}
{"MOLECULE": "CC(=O)N1N=C(c2ccccc2OCc2ccc(Br)cc2)CC1c1ccccc1OCC(=O)NO (centres unmarked) [Compound 14gg]", "melting point": "96 to 98 °C"}
{"MOLECULE": "CC(=O)N1N=C(c2ccccc2OCc2cccc(Br)c2)CC1c1ccccc1OCC(=O)NO (centres unmarked) [Compound 14ee]", "melting point": "164 to 166 °C"}
{"MOLECULE": "NC(=O)N1N=C(c2ccccc2I)CC1c1ccccc1OCC(=O)NO (centres unmarked) [Compound 14j]", "melting point": "164 to 166 °C"}
{"MOLECULE": "CC(=O)N1N=C(c2ccccc2I)CC1c1cc(Br)ccc1OCC(=O)NO (centres unmarked) [Compound 14u]", "melting point": "106 to 108 °C"}
{"MOLECULE": "COc1cccc(OC)c1C1=NN(C(C)=O)C(c2ccccc2OCC(=O)NO)C1 (centres unmarked) [Compound 14m]", "melting point": "178 to 180 °C"}
{"MOLECULE": "NC(=O)N1N=C(c2ccccc2I)CC1c1cccc(Br)c1OCC(=O)NO (centres unmarked) [Compound 14r]", "melting point": "140 to 142 °C"}
{"MOLECULE": "COc1ccc(C2=NN(C(C)=O)C(c3ccccc3OCC(=O)NO)C2)cc1 (centres unmarked) [Compound 14f]", "melting point": "120 to 122 °C"}

Sample CC(=O)N1N=C(c2ccccc2I)CC1c1c(Cl)cccc1OCC(=O)NO (centres unmarked) [Compound 14y] — what was its melting point?
168 to 170 °C

Sample NC(=O)N1N=C(c2ccccc2OCc2ccccc2)CC1c1ccccc1OCC(=O)NO (centres unmarked) [Compound 14bb] — what was its melting point?
176 to 178 °C

Sample CC(=O)N1N=C(c2c(Cl)cccc2Cl)CC1c1ccccc1OCC(=O)NO (centres unmarked) [Compound 14o] — what was its melting point?
174 to 176 °C

Sample NC(=O)N1N=C(c2ccccc2OCc2ccc(Br)cc2)CC1c1ccccc1OCC(=O)NO (centres unmarked) [Compound 14hh] — what was its melting point?
96 to 98 °C

Sample CC(=O)N1N=C(c2ccccc2OCc2ccccc2)CC1c1ccccc1OCC(=O)NO (centres unmarked) [Compound 14aa] — what was its melting point?
162 to 164 °C

Sample NC(=O)N1N=C(c2ccccc2I)CC1c1c(Br)cccc1OCC(=O)NO (centres unmarked) [Compound 14x] — what was its melting point?
132 to 134 °C

Sample NC(=O)N1N=C(c2ccccc2I)CC1c1ccc(Br)cc1OCC(=O)NO (centres unmarked) [Compound 14t] — what was its melting point?
196 to 198 °C

Sample NC(=O)N1N=C(c2ccccc2I)CC1c1cc(Br)ccc1OCC(=O)NO (centres unmarked) [Compound 14v] — what was its melting point?
202 to 204 °C

Sample COc1cccc(OC)c1C1=NN(C(N)=O)C(c2ccccc2OCC(=O)NO)C1 (centres unmarked) [Compound 14n] — what was its melting point?
212 to 214 °C

---

Test system: PC-3 cells
METHOD SUMMARY: Anti-proliferative assay (MTT), PC-3
Format: cell-based
RUN PARAMETERS: Homo sapiens, 48 h, triplicate, mean ± SD
ASSAY METRIC: pIC50
Value format note: pIC50 is -log10 of concentration (mol/L); just state the number.

Sample CC(=O)N1N=C(c2c(Cl)cccc2Cl)CC1c1ccccc1OCC(=O)NO (centres unmarked) [Compound 14o] — what was its pIC50?
4.34

---

EXPERIMENTAL SYSTEM: porcine kidney aminopeptidase N (APN) (Sus scrofa, UniProt P15145)
Entries annotated with measured IC50
Express your answer in µM, writing the number without its unit.

{"COMPOUND": "COc1cccc(C2=NN(C(C)=O)C(c3ccccc3OCC(=O)NO)C2)c1 (stereo not shown) [Compound 14e]", "EXPERIMENTAL SYSTEM": "porcine kidney aminopeptidase N (APN) (Sus scrofa, UniProt P15145)", "ASSAY METRIC": "IC50", "SCALE UNIT": "µM", "RECORDED RESULT": 0.37}
{"COMPOUND": "CC(=O)N1N=C(c2ccccc2OCc2ccccc2)CC1c1ccccc1OCC(=O)NO (stereo not shown) [Compound 14aa]", "EXPERIMENTAL SYSTEM": "porcine kidney aminopeptidase N (APN) (Sus scrofa, UniProt P15145)", "ASSAY METRIC": "IC50", "SCALE UNIT": "µM", "RECORDED RESULT": 0.017}
{"COMPOUND": "NC(=O)N1N=C(c2c(Cl)cccc2Cl)CC1c1ccccc1OCC(=O)NO (stereo not shown) [Compound 13c, reference compound]", "EXPERIMENTAL SYSTEM": "porcine kidney aminopeptidase N (APN) (Sus scrofa, UniProt P15145)", "ASSAY METRIC": "IC50", "SCALE UNIT": "µM", "RECORDED RESULT": 0.059}

Here's the next entry for you.
Item: NC(=O)N1N=C(c2ccccc2OCc2cccc(Br)c2)CC1c1ccccc1OCC(=O)NO (stereo not shown) [Compound 14ff] Test system: porcine kidney aminopeptidase N (APN) (Sus scrofa, UniProt P15145) Read-out: IC50 Value: ?
0.058

---

EXPERIMENTAL SYSTEM: porcine kidney aminopeptidase N (APN) (Sus scrofa, UniProt P15145)
Sequence (P15145 1-963): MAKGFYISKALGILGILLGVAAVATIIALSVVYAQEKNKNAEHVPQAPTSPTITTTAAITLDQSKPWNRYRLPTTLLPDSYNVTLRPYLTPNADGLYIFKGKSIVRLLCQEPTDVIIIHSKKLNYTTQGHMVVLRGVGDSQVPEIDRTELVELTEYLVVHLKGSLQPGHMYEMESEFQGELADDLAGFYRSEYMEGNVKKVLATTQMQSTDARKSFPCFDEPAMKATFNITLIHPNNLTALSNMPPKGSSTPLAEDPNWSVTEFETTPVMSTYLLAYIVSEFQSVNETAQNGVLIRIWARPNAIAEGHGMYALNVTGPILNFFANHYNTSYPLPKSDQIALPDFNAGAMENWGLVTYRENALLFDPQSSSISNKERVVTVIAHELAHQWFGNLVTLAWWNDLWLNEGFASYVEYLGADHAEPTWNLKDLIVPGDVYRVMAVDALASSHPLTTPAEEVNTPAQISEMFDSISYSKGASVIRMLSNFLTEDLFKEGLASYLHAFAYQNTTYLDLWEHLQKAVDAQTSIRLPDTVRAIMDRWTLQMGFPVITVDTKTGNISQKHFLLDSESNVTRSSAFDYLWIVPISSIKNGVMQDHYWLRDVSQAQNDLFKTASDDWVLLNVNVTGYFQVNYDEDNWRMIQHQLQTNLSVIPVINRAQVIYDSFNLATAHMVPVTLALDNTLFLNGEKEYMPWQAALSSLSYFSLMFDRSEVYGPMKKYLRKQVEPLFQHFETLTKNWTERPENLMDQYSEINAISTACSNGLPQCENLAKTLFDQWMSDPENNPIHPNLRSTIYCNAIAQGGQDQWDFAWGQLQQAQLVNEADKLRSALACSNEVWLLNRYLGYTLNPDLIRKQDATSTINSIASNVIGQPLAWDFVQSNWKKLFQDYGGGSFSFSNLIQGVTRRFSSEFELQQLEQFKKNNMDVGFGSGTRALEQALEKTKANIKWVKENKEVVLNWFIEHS
ASSAY METRIC: pIC50
Value format note: pIC50 is -log10 of concentration (mol/L); just state the number.

Please review the following examples before continuing.
{"COMPOUND": "NC(=O)N1N=C(c2ccccc2I)CC1c1cc(Br)ccc1OCC(=O)NO (centres unmarked) [Compound 14v]", "RECORDED RESULT": 6.27}
{"COMPOUND": "NC(=O)N1N=C(c2ccccc2I)CC1c1c(Cl)cccc1OCC(=O)NO (centres unmarked) [Compound 14z]", "RECORDED RESULT": 7.15}
{"COMPOUND": "CC(=O)N1N=C(c2ccccc2OCc2ccc(Br)cc2)CC1c1ccccc1OCC(=O)NO (centres unmarked) [Compound 14gg]", "RECORDED RESULT": 6.25}
{"COMPOUND": "CC(=O)N1N=C(c2ccccc2I)CC1c1c(Cl)cccc1OCC(=O)NO (centres unmarked) [Compound 14y]", "RECORDED RESULT": 7.64}
{"COMPOUND": "COc1cccc(OC)c1C1=NN(C(N)=O)C(c2ccccc2OCC(=O)NO)C1 (centres unmarked) [Compound 14n]", "RECORDED RESULT": 6.36}
{"COMPOUND": "NC(=O)N1N=C(c2ccccc2I)CC1c1ccc(Br)cc1OCC(=O)NO (centres unmarked) [Compound 14t]", "RECORDED RESULT": 5.80}
{"COMPOUND": "NC(=O)N1N=C(c2ccccc2OCc2ccccc2)CC1c1ccccc1OCC(=O)NO (centres unmarked) [Compound 14bb]", "RECORDED RESULT": 7.82}

Here's the next entry for you.
Sample CC(=O)N1N=C(c2ccccc2OCc2cccc(Br)c2)CC1c1ccccc1OCC(=O)NO (centres unmarked) [Compound 14ee] — what was its pIC50?
7.51
